Data origin: the Deep4Chem optical property database

emission maximum by entry:
Experiment: solvent given as SMILES
Conditions: in CC(C)OC(C)C
Include the unit right after the number.

Record excerpt, results attached:
• COC(=O)C(Cc1ccc2oc(-c3ccc(N(C)C)cc3)nc2c1)NC(=O)OC(C)(C)C (centres undefined) = 387.51 nm
• COc1ccc(C2=C3C(C)=CC(C)=[N+]3[B-](F)(F)n3c(/C=C/c4ccc(N(C)C)cc4)cc(C)c32)cc1 = 629 nm
• c1ccc(-c2nc(-c3ccc(-c4ccc(-n5c6ccccc6c6ccccc65)cc4)cn3)oc2-c2ccccc2)cc1 = 398 nm

In the following, a different molecule is considered.
Qu. Return emission maximum for the following molecule: `O=C1NC(=O)c2c1c1c3ccccc3[nH]c1c1[nH]c3ccccc3c21`
Ans. 450 nm

###

Assay: solvent given as SMILES
Details: in ClCCl
# strict inequality: emission maximum < 600 nm yields criterion met, everything else yields criterion not met

• COc1ccc(C#Cc2c3ccccc3c3n2[B-](F)(F)[N+]2=C(C)C=C(C)C2=C3)cc1 = criterion not met
• Cc1ccc(-c2c3nc(c(-c4ccc(C)cc4)c4ccc([nH]4)c(-c4ccc(OC(=O)C(C)c5cccc(C(=O)c6ccccc6)c5)cc4)c4nc(c(-c5ccc(C)cc5)c5ccc2[nH]5)C=C4)C=C3)cc1 (stereo not drawn) = criterion not met
• CCCCCCCCCCCCN1C(=O)c2c(c3ccc4cc(-c5ccc(C)cc5)c(OC)cc4c3c3c2ccc2cc(-c4ccc(C)cc4)c(OC)cc23)C1=O = criterion met

Qu. # strict comparison: is reported emission maximum < 600 nm? input = c1ccc(-c2cc3cc4ccccc4cc3p2-c2ccccc2)cc1 (stereo not drawn)
Ans. criterion met

Qu. Consider `C[Si]1(C)O[Si](C)(C)c2cc3c(-c4ccccc4)c4ccccc4nc3cc21` . Does its emission maximum lie strictly below 600 nm?
Ans. criterion met

Qu. Regarding `CSc1ccc(/C=C/c2cnc3ccccc3n2)cc1` , kindly confirm whether its emission maximum is beneath 600 nm.
Ans. criterion met

###

List of emission maximum values.
Experiment: solvent given as SMILES
Settings: in ClCCl
The answer is to be given in nm; state only the numeric part.

• COC(=O)c1cc(=O)n(C)c2cc(-c3ccccc3)sc12 = 462
• CCCCCCCCCCCCCCCCCCN1C(=O)c2cccc3c(OCCN(C)C)ccc(c23)C1=O = 502
• COc1ccc(-c2cc(-c3ccc(OC)cc3)c3c(N)nc(N4CCCC4)c(C#N)c3n2)cc1 = 506
• CC(C)(C)OC(=O)N1CCN(c2ccc3c(-c4ccc(I)cc4)c4ccc(=[N+]5CCN(C(=O)OC(C)(C)C)CC5)cc-4oc3c2)CC1 = 585

Attention now shifts to the item below.
Qu. Specify reported emission maximum for the molecule shown: `c1ccc2c(-c3ccc4sc5ccccc5c4c3)c3ccccc3cc2c1`
Ans. 405.52

###

Assay: solvent given as SMILES
Conditions: in O
Decide by emission maximum: equal to or exceeding 400 nm means Yes, less means No.

Field: example entries. Status: answers known.
• CC1(C)C2=C3C=C4C5=[N+](CCC4OC3CCN2c2ccc(CC(=O)NCCCCCCO)cc21)c1ccc(S(=O)(=O)[O-])cc1C5(C)C (stereo unspecified) = Yes
• Nc1nc2c(ncn2[C@H]2C[C@H](O)[C@@H](CO)O2)c(=O)[nH]1 = No
• O=S(=O)([O-])c1ccc2c(O)cc(S(=O)(=O)[O-])cc2c1 = No
• O=C1Nc2ccccc2/C1=C/C(=O)c1ccc(O)cc1 = Yes

Qu. Determine whether measured emission maximum meets or exceeds 400 nm for `CCc1ccc(/C=N/c2cc(C(C)C)c(O)cc2C)cc1`
Ans. Yes
